- EXPERIMENT SUMMARY: Pharmacokinetic study in mice
- Assay type: in vivo, C57BL/6J mice
- ASSAY SETUP: male, C57BL/6J, plasma; mouse, oral; i.v. 2 mg/kg

COMPOUND	bioavailability (%)
N#Cc1ccc(Cc2nc(C(=O)NCC(=O)N3CC(F)(F)C[C@H]3C#N)cs2)cc1 [BR103354]	48.4

###

- EXPERIMENT SUMMARY: Pharmacokinetic study in monkeys
- Assay type: in vivo
- ASSAY SETUP: male, cynomolgus, cynomolgus monkey, plasma, inhaled or intranasal; monkey, 10 mg/kg intranasally

CPD SMILES	Tmax [h]
N#Cc1ccc(Cc2nc(C(=O)NCC(=O)N3CC(F)(F)C[C@H]3C#N)cs2)cc1	2.3

###

- EXPERIMENT SUMMARY: Kinetic solubility
- Type: physicochemical
- ASSAY SETUP: phosphate buffer, 22 °C, pH 7.4, aqueous buffer, kinetic from dmso stock

CPD SMILES	solubility kinetic at 2 h
N#Cc1ccc(Cc2nc(C(=O)NCC(=O)N3CC(F)(F)C[C@H]3C#N)cs2)cc1	78 µg/mL

###

- EXPERIMENT SUMMARY: Kinetic solubility
- Format: physicochemical
- ASSAY SETUP: 22 °C, simulated gastric fluid, kinetic from dmso stock; pH 1.0

CPD SMILES	solubility kinetic at 2 h / µg/mL
N#Cc1ccc(Cc2nc(C(=O)NCC(=O)N3CC(F)(F)C[C@H]3C#N)cs2)cc1	79

###

- SUBJECT OF TEST: PREP (Homo sapiens)
- Sequence (P48147 1-710): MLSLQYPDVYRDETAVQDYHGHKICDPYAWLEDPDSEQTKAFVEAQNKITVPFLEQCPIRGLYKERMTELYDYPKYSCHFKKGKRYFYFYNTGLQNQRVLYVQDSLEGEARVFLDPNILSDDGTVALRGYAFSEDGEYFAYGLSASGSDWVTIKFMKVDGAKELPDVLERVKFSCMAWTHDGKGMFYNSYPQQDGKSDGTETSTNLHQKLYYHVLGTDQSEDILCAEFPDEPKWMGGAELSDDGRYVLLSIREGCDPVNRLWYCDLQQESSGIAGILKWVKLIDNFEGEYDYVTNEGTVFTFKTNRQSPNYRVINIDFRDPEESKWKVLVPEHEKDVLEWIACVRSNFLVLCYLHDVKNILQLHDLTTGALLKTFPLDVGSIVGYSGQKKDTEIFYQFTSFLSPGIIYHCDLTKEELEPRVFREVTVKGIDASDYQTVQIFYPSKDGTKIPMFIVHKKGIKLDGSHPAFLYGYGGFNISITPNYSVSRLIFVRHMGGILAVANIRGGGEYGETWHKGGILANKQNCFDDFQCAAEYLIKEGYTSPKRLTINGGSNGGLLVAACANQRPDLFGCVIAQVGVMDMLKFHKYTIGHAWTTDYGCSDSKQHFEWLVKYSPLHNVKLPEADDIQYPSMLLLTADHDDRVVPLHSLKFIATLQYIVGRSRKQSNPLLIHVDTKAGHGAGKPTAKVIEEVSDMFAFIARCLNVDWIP
EXPERIMENTAL READOUT: IC50 (nM)

CPD SMILES	SUBJECT OF TEST	EXPERIMENTAL READOUT	UNIT NAME	VAL
N#Cc1ccc(Cc2nc(C(=O)NCC(=O)N3CC(F)(F)C[C@H]3C#N)cs2)cc1	PREP (Homo sapiens)	IC50	nM	387
